# Experimental Details: Clearance in Sprague-Dawley rat urine at 1 mg/kg, iv
# Assay type: ADME, organism-based
# Set-up: dose 1 mg/kg, route intravenous

{"Line Notation": "CC1=NN(c2ccc(C)c(C)c2)C(=O)/C1=N\\Nc1cccc(-c2cccc(C(=O)O)c2)c1O", "CL renal": "< 1.68 mL/day/kg"}

====

# Assay Target: Solute carrier organic anion transporter family member 1B3 (Homo sapiens, UniProt Q9NPD5)
# Sequence (Q9NPD5 whole entry): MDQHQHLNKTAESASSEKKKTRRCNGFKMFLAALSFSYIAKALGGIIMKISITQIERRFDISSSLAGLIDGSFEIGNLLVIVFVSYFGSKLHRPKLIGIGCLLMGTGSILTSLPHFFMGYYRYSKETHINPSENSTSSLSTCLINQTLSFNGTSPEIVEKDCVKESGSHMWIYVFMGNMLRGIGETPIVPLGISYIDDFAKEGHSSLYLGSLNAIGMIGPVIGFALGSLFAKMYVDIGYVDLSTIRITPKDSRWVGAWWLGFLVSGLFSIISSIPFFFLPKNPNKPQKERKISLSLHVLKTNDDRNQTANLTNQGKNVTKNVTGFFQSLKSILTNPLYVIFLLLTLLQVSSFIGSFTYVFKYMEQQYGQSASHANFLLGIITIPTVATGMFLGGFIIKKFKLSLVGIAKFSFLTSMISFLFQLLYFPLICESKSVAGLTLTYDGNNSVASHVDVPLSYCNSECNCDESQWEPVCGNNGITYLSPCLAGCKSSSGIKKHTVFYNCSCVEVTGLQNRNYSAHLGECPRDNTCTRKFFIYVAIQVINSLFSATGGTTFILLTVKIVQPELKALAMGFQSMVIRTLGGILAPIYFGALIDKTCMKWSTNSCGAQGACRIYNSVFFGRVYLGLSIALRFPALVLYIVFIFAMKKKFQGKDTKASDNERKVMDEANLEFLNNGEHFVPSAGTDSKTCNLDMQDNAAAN
# Experimental Details: Inhibition of OATP1B3-mediated [3H]estradiol 17beta-glucuronide uptake in human OATP1B3 expressing HEK293/PDZK1 cells by scintillation counting
pKi: −log10 of the molar value.
Measurement Kind: pKi

{"Line Notation": "CC1=NN(c2ccc(C)c(C)c2)C(=O)/C1=N\\Nc1cccc(-c2cccc(C(=O)O)c2)c1O", "Measurement Kind": "pKi", "Val": 4.59}

====

# Experimental Details: Total clearance in bile-duct cannulated Sprague-Dawley rat at 1 mg/kg, iv in presence of 20 mg/kg rifampicin (reference value: 34.3 +/- 3.9 ml/h/kg)
# Type: ADME, organism-based
# Cond: in vivo
Measurement Kind: clearance (mL/min/kg)

{"Line Notation": "CC1=NN(c2ccc(C)c(C)c2)C(=O)/C1=N\\Nc1cccc(-c2cccc(C(=O)O)c2)c1O", "Measurement Kind": "clearance", "Unit Name": "mL/min/kg", "Val": 0.335}

====

# Assay Target: UniProt:O15245
# Sequence (O15245 whole entry): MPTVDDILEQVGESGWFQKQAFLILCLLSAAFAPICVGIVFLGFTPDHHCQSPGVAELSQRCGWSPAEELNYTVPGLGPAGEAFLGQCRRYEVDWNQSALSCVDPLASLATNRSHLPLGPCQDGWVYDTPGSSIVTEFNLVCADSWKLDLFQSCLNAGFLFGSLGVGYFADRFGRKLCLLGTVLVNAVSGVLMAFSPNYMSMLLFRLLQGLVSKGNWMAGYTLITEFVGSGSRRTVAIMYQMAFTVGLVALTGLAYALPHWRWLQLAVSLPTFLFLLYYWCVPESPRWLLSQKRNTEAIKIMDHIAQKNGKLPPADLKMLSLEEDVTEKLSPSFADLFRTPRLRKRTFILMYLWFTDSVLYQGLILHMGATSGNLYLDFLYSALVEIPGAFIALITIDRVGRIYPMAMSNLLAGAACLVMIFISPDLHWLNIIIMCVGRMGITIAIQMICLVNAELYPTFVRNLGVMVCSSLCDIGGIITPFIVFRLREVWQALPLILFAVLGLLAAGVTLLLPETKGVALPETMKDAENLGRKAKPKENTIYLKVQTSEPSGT
# Experimental Details: Inhibition of OCT1-mediated [14C]tetraethylammonium uptake in human OCT1 expressing HEK293/PDZK1 cells by scintillation counting

{"Compound": "CC1=NN(c2ccc(C)c(C)c2)C(=O)/C1=N\\Nc1cccc(-c2cccc(C(=O)O)c2)c1O [ELTROMBOPAG]", "Assay Target": "UniProt:O15245", "Ki (µM)": 103}

====

# Assay Target: Solute carrier organic anion transporter family member 1B1 (Homo sapiens, UniProt Q9Y6L6)
# Sequence (Q9Y6L6 whole entry): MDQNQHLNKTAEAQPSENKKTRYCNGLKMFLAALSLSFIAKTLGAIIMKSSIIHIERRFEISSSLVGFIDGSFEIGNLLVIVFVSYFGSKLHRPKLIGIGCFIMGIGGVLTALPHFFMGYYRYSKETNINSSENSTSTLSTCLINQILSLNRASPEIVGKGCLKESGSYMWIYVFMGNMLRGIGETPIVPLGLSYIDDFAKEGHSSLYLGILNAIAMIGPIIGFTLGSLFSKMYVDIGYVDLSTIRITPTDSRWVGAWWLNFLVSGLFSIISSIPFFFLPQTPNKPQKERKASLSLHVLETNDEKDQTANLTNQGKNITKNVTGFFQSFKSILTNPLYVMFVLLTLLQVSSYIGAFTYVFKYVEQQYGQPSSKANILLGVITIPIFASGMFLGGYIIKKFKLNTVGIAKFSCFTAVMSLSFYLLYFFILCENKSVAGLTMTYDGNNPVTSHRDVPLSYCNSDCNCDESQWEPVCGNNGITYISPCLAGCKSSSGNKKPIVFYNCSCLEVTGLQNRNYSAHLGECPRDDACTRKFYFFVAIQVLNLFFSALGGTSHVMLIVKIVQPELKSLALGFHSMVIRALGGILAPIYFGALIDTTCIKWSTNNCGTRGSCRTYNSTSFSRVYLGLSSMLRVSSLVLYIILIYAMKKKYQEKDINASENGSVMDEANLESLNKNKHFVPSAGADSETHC
# Experimental Details: Inhibition of OATP1B1-mediated [3H]estrone-3-sulfate uptake in human OATP1B1 expressing HEK293/PDZK1 cells by scintillation counting

{"Compound": "CC1=NN(c2ccc(C)c(C)c2)C(=O)/C1=N\\Nc1cccc(-c2cccc(C(=O)O)c2)c1O [ELTROMBOPAG]", "Unit Name": "µM", "Ki": 14.9}

====

# Experimental Details: Total clearance in wild-type mouse at 1 mg/kg, iv
# Format: ADME, organism-based
# Parameters: dose 1 mg/kg, route intravenous
# Cond: in vivo
Measurement Kind: clearance (mL/min/kg)

{"Line Notation": "CC1=NN(c2ccc(C)c(C)c2)C(=O)/C1=N\\Nc1cccc(-c2cccc(C(=O)O)c2)c1O", "Measurement Kind": "clearance", "Unit Name": "mL/min/kg", "Val": 1.29}

====

# Experimental Details: Volume of distribution at steady state in Sprague-Dawley rat at 1 mg/kg, iv
# Format: ADME, organism-based
# Design: dose 1 mg/kg, route intravenous
# Cond: in vivo, read-out: Vdss

{"Compound": "CC1=NN(c2ccc(C)c(C)c2)C(=O)/C1=N\\Nc1cccc(-c2cccc(C(=O)O)c2)c1O [ELTROMBOPAG]", "Vd, L/kg": 0.287}

====

# Experimental Details: Drug excretion in Sprague-Dawley rat bile assessed as unchanged compound level at 1 mg/kg, iv for 72 hrs
# Format: ADME, organism-based
# Set-up: dose 1 mg/kg, route intravenous
# Cond: read-out: Drug excretion
Measurement Kind: dose excreted at 72 h

{"Line Notation": "CC1=NN(c2ccc(C)c(C)c2)C(=O)/C1=N\\Nc1cccc(-c2cccc(C(=O)O)c2)c1O", "Val": "40%"}

====

# Experimental Details: Total clearance in bile duct cannulated Sprague-Dawley rat at 1 mg/kg, iv
# Type: ADME, organism-based
# Design: dose 1 mg/kg, route intravenous
# Cond: in vivo

{"Molecule": "CC1=NN(c2ccc(C)c(C)c2)C(=O)/C1=N\\Nc1cccc(-c2cccc(C(=O)O)c2)c1O [ELTROMBOPAG]", "Unit Name": "mL/min/kg", "clearance": 0.572}

====

# Experimental Details: Solubility of the compound
# Type: physicochemical

{"Line Notation": "CC1=NN(c2ccc(C)c(C)c2)C(=O)/C1=N\\Nc1cccc(-c2cccc(C(=O)O)c2)c1O", "Unit Name": "µM", "solubility": 200}

====

# Experimental Details: Total clearance in pdzk1(-/-) mouse at 1 mg/kg, iv
# Type: ADME, organism-based
# Parameters: dose 1 mg/kg, route intravenous
# Cond: in vivo

{"Line Notation": "CC1=NN(c2ccc(C)c(C)c2)C(=O)/C1=N\\Nc1cccc(-c2cccc(C(=O)O)c2)c1O", "clearance": "0.92 mL/min/kg"}

====

# Assay Target: UniProtKB O94956
# Sequence (O94956 whole entry): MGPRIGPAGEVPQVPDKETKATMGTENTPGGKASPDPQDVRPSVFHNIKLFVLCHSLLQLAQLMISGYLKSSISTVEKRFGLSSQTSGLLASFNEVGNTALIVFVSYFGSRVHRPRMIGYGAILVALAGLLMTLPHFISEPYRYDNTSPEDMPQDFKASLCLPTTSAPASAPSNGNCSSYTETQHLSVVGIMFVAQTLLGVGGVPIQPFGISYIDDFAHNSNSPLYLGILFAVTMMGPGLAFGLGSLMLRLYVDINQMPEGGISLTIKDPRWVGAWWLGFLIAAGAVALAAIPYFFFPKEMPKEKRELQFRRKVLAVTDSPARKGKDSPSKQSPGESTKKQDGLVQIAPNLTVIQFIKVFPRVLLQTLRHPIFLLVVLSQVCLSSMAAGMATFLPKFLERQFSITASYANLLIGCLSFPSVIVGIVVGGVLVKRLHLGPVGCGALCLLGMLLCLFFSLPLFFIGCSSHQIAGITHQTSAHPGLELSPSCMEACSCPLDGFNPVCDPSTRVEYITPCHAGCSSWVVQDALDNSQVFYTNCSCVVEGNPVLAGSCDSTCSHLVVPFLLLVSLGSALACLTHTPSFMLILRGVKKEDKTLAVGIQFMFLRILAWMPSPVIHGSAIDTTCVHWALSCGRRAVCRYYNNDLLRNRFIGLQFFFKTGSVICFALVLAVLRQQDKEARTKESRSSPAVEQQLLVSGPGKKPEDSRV
# Experimental Details: Inhibition of OATP2B1-mediated [3H]estrone-3-sulfate uptake in human OATP2B1 expressing HEK293/PDZK1 cells by scintillation counting

{"Line Notation": "CC1=NN(c2ccc(C)c(C)c2)C(=O)/C1=N\\Nc1cccc(-c2cccc(C(=O)O)c2)c1O", "Ki / µM": 8.48}
